Molecular target: bacterial GABA-T (Pseudomonas fluorescens)
Sequence (Q4KKA1 1-425): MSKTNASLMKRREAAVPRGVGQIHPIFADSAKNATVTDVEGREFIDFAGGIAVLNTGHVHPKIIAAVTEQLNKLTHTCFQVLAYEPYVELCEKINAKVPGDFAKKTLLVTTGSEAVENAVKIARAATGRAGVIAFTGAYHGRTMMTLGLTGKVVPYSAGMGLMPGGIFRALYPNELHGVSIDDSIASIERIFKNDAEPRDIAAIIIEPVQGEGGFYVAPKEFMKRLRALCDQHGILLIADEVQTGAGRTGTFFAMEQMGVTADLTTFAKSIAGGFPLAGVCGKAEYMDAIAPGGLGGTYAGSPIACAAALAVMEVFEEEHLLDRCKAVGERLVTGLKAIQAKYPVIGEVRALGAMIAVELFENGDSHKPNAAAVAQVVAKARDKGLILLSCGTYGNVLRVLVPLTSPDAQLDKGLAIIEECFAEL
Assay: GABA-T inhibition assay with GABase, NADPH absorbance at 340 nm (Mixture A)
Format: biochemical
Conditions: presence of 1 mM 2-ME (monomeric form); 10 min preincubation, 25 °C, pH 8.6, 200 µM GABA; read-out: IC50 for bacterial GABA-T
measurementLabel: IC50 (mM)
The reply should be a number in mM, with the unit left off.

Would you kindly share the measured IC50 for C=CC(N)CCC(=O)O (stereo not shown) [vigabatrin] ?
14.2

###

Target: bacterial GABA-T (Pseudomonas fluorescens, UniProt Q4KKA1)
Experiment: GABA-T inhibition assay with GABase, NADPH absorbance at 340 nm (Mixture A)
Format: biochemical
Conditions: IC50 for bacterial GABA-T, presence of 1 mM 2-ME (monomeric form); 10 min preincubation, 25 °C, pH 8.6, 200 µM GABA
measurementLabel: IC50

Would you kindly share the measured IC50 for NC1C=CC=C(C(=O)O)C1 (stereo not shown) ?
130 nM

###

Molecular target: bacterial GABA-T (Pseudomonas fluorescens)
Test: GABA-T inhibition assay with GABase, NADPH absorbance at 340 nm (Mixture A)
Type: biochemical
Details: IC50 for bacterial GABA-T, absence of 2-ME (multimeric form); 10 min preincubation, 25 °C, pH 8.6, 200 µM GABA
measurementLabel: pIC50
Kindly note that pIC50 refers to -log10 of the concentration in mol/L and answer with the value alone.

Would you kindly share the measured pIC50 for NC1C=CC=C(C(=O)O)C1 (stereo not shown) ?
6.72

###

Target: recombinant human GABA-T (Homo sapiens)
Construct: made in house; host or cells: Expi293F human cells, transient transfection
Sequence (P80404 29-500): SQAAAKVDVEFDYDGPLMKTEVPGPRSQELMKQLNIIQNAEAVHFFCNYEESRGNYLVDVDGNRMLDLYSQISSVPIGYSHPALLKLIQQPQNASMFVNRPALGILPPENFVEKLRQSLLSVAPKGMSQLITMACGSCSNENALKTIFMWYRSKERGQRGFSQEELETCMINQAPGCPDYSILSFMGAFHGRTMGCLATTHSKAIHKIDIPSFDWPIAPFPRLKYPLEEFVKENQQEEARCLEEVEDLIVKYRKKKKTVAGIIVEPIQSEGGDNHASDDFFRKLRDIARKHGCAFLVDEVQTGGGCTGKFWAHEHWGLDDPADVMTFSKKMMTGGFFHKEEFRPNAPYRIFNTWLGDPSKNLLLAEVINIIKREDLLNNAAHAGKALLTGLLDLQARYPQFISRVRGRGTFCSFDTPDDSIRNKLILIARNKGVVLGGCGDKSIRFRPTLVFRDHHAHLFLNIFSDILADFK
Experiment: GABA-T inhibition assay, coupled with SSADH, NADPH absorbance at 340 nm (Mixture C)
Type: biochemical
Conditions: IC50 for human GABA-T, absence of 2-ME (homodimeric/multimeric form); 10 min preincubation, 25 °C, pH 8.6, 200 µM GABA
measurementLabel: IC50
The number alone won't do; follow it with the unit.

Would you kindly share the measured IC50 for NC1C=CC=C(C(=O)O)C1 (stereo not shown) ?
220 nM
